Entry source: patent EP2837626A1

target: full length GRK5 (Homo sapiens, UniProt P34947); construct: 6/2 fold concentrated full length GRK5 (Millipore, #14-714) in reaction buffer is added to each well; purchased Millipore 14-714; experiment: IC50 determination of compounds inhibiting GRK5 by ADP Glo Kinase Assay technology (Promega); format: biochemical; details: 20 nM GRK5, 18.7 µM ATP, 10 µM casein, 12 concentrations, triplicates, read-out: GRK5 IC50
Sequence (P34947 whole entry): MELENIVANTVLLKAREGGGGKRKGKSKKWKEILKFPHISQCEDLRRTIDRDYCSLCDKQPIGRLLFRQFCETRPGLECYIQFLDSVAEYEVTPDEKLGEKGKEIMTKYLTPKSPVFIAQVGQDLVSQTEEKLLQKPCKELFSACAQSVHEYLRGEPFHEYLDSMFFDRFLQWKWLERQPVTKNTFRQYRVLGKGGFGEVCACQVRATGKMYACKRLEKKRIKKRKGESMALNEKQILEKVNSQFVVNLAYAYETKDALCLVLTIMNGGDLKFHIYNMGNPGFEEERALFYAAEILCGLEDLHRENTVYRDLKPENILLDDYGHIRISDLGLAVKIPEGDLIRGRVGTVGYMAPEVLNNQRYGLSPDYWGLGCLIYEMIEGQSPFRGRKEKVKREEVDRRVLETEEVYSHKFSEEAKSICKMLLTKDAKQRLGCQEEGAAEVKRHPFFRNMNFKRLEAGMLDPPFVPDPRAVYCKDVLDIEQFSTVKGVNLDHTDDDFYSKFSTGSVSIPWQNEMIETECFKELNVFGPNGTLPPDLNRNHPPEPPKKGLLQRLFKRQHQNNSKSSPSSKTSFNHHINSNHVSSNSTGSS
The following compounds are shown together with reported IC50 values.
Endpoint Name: IC50

>  <Compound>
CCC(NC(=O)c1ccc2c(c1)/C(=C/c1[nH]c(C)c(C(=O)N3CCN(C)CC3)c1C)C(=O)N2)c1ccc(Cl)cc1 (stereo not shown)

>  <Test Value>
< 5 µM

$$$$
>  <Compound>
CCC(NC(=O)c1ccc2c(c1)/C(=C/c1[nH]c(C)c(C(=O)NCCN3CCCC3)c1C)C(=O)N2)c1ccc(Cl)cc1 (stereo not shown)

>  <Test Value>
< 5 µM

$$$$
>  <Compound>
CC[C@H](NC(=O)c1ccc2c(c1)/C(=C/c1[nH]c(C)c(C(=O)N3CCC[C@H]3CN3CCCC3)c1C)C(=O)N2)c1ccccc1

>  <Test Value>
5 to 20 µM

$$$$
>  <Compound>
C[C@@H](NC(=O)c1ccc2c(c1)/C(=C/Nc1ccc(CN3CCCCC3)cc1)C(=O)N2)c1ccc(Cl)cc1

>  <Test Value>
< 5 µM

$$$$
>  <Compound>
C[C@@H](NC(=O)c1ccc2c(c1)/C(=C/Nc1ccc(CN3CCCCC3)cc1)C(=O)N2)c1ccccc1

>  <Test Value>
< 5 µM

$$$$
>  <Compound>
CC[C@@H](NC(=O)c1ccc2c(c1)/C(=C/c1[nH]c(C)c(C(=O)N3CCC[C@@H]3CN3CCCC3)c1C)C(=O)N2)c1ccccc1

>  <Test Value>
< 5 µM

$$$$
>  <Compound>
Cc1cccc(C(C)NC(=O)c2ccc3c(c2)/C(=C/c2[nH]c(C)c(C(=O)N4CCN(C)CC4)c2C)C(=O)N3)c1 (stereo not shown)

>  <Test Value>
5 to 20 µM

$$$$
>  <Compound>
CC[C@H](NC(=O)c1ccc2c(c1)/C(=C/c1[nH]c(C)c(C(=O)NCCN(CC)CC)c1C)C(=O)N2)c1ccccc1

>  <Test Value>
> 30 µM

$$$$
>  <Compound>
CC[C@H](NC(=O)c1ccc2c(c1)/C(=C/c1[nH]c(C)c(C(=O)N3CCC(N4CCN(C)CC4)CC3)c1C)C(=O)N2)c1ccccc1

>  <Test Value>
> 30 µM

$$$$
>  <Compound>
CC[C@H](NC(=O)c1ccc2c(c1)/C(=C/c1[nH]c(C)c(C(=O)N3CCCCC3)c1C)C(=O)N2)c1ccccc1

>  <Test Value>
> 30 µM

$$$$
>  <Compound>
COc1ccc([C@H](C)NC(=O)c2ccc3c(c2)/C(=C/c2[nH]c(C)c(C(=O)N4CCCCC4)c2C)C(=O)N3)cc1

>  <Test Value>
< 5 µM

$$$$
>  <Compound>
CC[C@@H](NC(=O)c1ccc2c(c1)/C(=C/c1[nH]c(C)c(C(=O)N3CCC(N4CCN(C)CC4)CC3)c1C)C(=O)N2)c1ccccc1

>  <Test Value>
5 to 20 µM

$$$$
>  <Compound>
CC[C@@H](NC(=O)c1ccc2c(c1)/C(=C/c1[nH]c(C)c(C(=O)NCCN(CC)CC)c1C)C(=O)N2)c1ccccc1

>  <Test Value>
< 5 µM

$$$$

====

Readings of pIC50 for the listed compounds
biological target: full length GRK5 (Homo sapiens, UniProt P34947); construct: 6/2 fold concentrated full length GRK5 (Millipore, #14-714) in reaction buffer is added to each well; purchased Millipore 14-714; assay: IC50 determination of compounds inhibiting GRK5 by ADP Glo Kinase Assay technology (Promega); format: biochemical; settings: 20 nM GRK5, 18.7 µM ATP, 10 µM casein, 12 concentrations, triplicates, read-out: GRK5 IC50
pIC50: −log10 of the molar value.
Endpoint Name: pIC50

>  <Compound>
CC[C@@H](NC(=O)c1ccc2c(c1)/C(=C/c1[nH]c(C)c(C(=O)N3CCN(C)CC3)c1C)C(=O)N2)c1ccccc1

>  <Test Value>
4.70 to 5.30

$$$$
>  <Compound>
Cc1[nH]c(/C=C2\C(=O)Nc3ccc(C(=O)N[C@@H](C)c4ccc(F)cc4)cc32)c(C)c1C(=O)N1CCCCC1

>  <Test Value>
< 4.52

$$$$
>  <Compound>
Cc1[nH]c(/C=C2\C(=O)Nc3ccc(C(=O)N[C@H](C)c4ccc(Cl)cc4)cc32)c(C)c1C(=O)N1CCCC1

>  <Test Value>
> 5.30

$$$$
>  <Compound>
CCC(NC(=O)c1ccc2c(c1)/C(=C/c1[nH]c(C)c(C(=O)NCCN3CCCC3)c1C)C(=O)N2)c1cccc(Cl)c1 (stereo not shown)

>  <Test Value>
> 5.30

$$$$
>  <Compound>
Cc1ccc([C@@H](C)NC(=O)c2ccc3c(c2)/C(=C/c2[nH]c(C)c(C(=O)N4CCN(C)CC4)c2C)C(=O)N3)cc1

>  <Test Value>
> 5.30

$$$$
>  <Compound>
C[C@@H](c1ccccc1)N(C)C(=O)c1ccc2c(c1)/C(=C/Nc1ccc(CN3CCCCC3)cc1)C(=O)N2

>  <Test Value>
> 5.30

$$$$
>  <Compound>
Cc1[nH]c(/C=C2\C(=O)Nc3ccc(C(=O)N[C@@H](C)c4ccccc4)cc32)c(C)c1C(=O)N1CCCCC1

>  <Test Value>
< 4.52

$$$$
>  <Compound>
CCC(NC(=O)c1ccc2c(c1)/C(=C/c1[nH]c(C)c(C(=O)NCCN3CCCC3)c1C)C(=O)N2)c1ccc(F)c(F)c1 (stereo not shown)

>  <Test Value>
> 5.30

$$$$
>  <Compound>
COc1cccc([C@@H](C)NC(=O)c2ccc3c(c2)/C(=C/Nc2ccc(CN4CCCCC4)cc2)C(=O)N3)c1

>  <Test Value>
> 5.30

$$$$
>  <Compound>
C[C@@H](NC(=O)c1ccc2c(c1)/C(=C/Nc1ccc(CN3CCCCC3)cc1)C(=O)N2)c1cccc(Cl)c1

>  <Test Value>
> 5.30

$$$$
>  <Compound>
CC[C@@H](NC(=O)c1ccc2c(c1)/C(=C/c1[nH]c(C)c(C(=O)NCCN3CCCC3)c1C)C(=O)N2)c1ccccc1

>  <Test Value>
> 5.30

$$$$
>  <Compound>
Cc1[nH]c(/C=C2\C(=O)Nc3ccc(C(=O)N[C@H](C)c4ccccc4)cc32)c(C)c1C(=O)N1CCN(C)CC1

>  <Test Value>
> 5.30

$$$$
>  <Compound>
COc1ccc([C@@H](C)NC(=O)c2ccc3c(c2)/C(=C/c2[nH]c(C)c(C(=O)N4CCN(C)CC4)c2C)C(=O)N3)cc1

>  <Test Value>
> 5.30

$$$$
